test system: HCT-116 colon; assay: NCI-60 one-dose screen, 48 h; details: 10 µM unless noted
About 83,000 compounds went through this panel and 20% of them were active in at least one assay; those are over-represented in the sample as a whole. Active and inactive are the calls of the source. How the source made its calls: active means growth percent below 10; inactive means the rest.
One label from this list, please: True (active), False (inactive)

(Q) For `CC(C)C1=NOC(=O)C1=Cc1cn(-c2ccccc2)nc1-c1ccc(Cl)cc1` , what call appears in the results of this test?
(A) False

(Q) For CCOC(=O)CC(c1ccccc1)C(C#N)c1ccccc1 (stereo not given) , what call appears in the results of this test?
(A) False

(Q) For CC/C=C(\C)C(CCC)(CN=O)C(=O)OCC (stereo not given) , what call appears in the results of this test?
(A) False

(Q) For `C[C@H]1[C@H](C)CC[C@]2(C(=O)O)CC[C@]3(C)C(=CC[C@@H]4[C@@]5(C)C/C(=C/c6ccco6)C(=O)C(C)(C)[C@@H]5CC[C@]43C)[C@H]12` , what call appears in the results of this test?
(A) True

(Q) For `O=C1NC(=O)C(Cc2ccccc2)(Cc2ccccc2)N1` , what call appears in the results of this test?
(A) False

###

Tested on: OVCAR-5 ovarian
Experiment: NCI-60 one-dose screen, 48 h
Conditions: 10 µM unless noted
Experimental: Growth inhibition of the OVCAR-5 human tumor cell line is measured as a screen for anti-cancer activity. Cells are grown in 96 well plates and exposed to the test compound for 48 hours. Compounds are tested at a single concentration, which is 10^-5 M for most compounds. The reported endpoint is percent growth (GI% or GIPRCNT), where numbers from 0 - 100% represent growth inhibition, and numbers from -100% - 0 represent cell death. For example, a value of 40 represents 60% growth inhibition. […]
About 83,000 compounds went through this panel and 20% of them were active in at least one assay; those are over-represented in the sample as a whole. Active and inactive are the calls of the source. Rule for the calls: active = growth percent below 10; inactive = the rest.
One label from this list, please: active, inactive

These solved cases illustrate the format of a correct answer.
compound	target.under.test	cat
COc1ccc(C2=C(c3cn(C)c4ccccc34)C(=O)OC2)cc1OC	OVCAR-5 ovarian	inactive
CCCCCn1c(C)cc(/C=C\c2ccc3cc(C)ccc3[n+]2C)c1C	OVCAR-5 ovarian	inactive
N#C/C(C(=O)c1ccccc1)=C1/C(=O)Nc2ccccc21	OVCAR-5 ovarian	inactive
O=C1Nc2ccccc2/C1=C/C(=O)c1ccc(N2CCOCC2)cc1	OVCAR-5 ovarian	inactive
COc1ccc(/C=C/C(=C/c2c(O)[nH]c3cc(Br)ccc23)N=O)cc1	OVCAR-5 ovarian	inactive
O=C(N/N=C1\c2ccccc2-c2cccc(C(=O)O)c21)c1ccc(O)cc1	OVCAR-5 ovarian	inactive
O=[N+]([O-])c1cc([N+](=O)[O-])c(NN=C(c2ccc(O)cc2)c2ccc(O)cc2)cc1Cl	OVCAR-5 ovarian	inactive
C=C(C)[C@@H]1CC[C@]2(C(=O)OC)CC[C@]3(C)[C@H](CC[C@@H]4[C@@](C)(CCc5nn[nH]n5)[C@H](C(=C)C)CC[C@]43C)[C@@H]12	OVCAR-5 ovarian	active

(Q) For `Nc1cccc2c1C(=O)c1cccc(NC(=O)c3ccccc3)c1C2=O` , what call appears in the results of this test?
(A) inactive

(Q) For `COc1cc(NN=C(c2ccc(O)cc2)c2ccc(O)cc2)c([N+](=O)[O-])cc1[N+](=O)[O-]` , what call appears in the results of this test?
(A) inactive

(Q) For `O=C(N/N=C/c1c(Cl)cccc1Cl)c1cccc(Nc2ccnc(C(F)(F)F)c2)c1` , what call appears in the results of this test?
(A) inactive

(Q) For `CC(C)=CCC[C@](C)(O)[C@H]1CC[C@]2(C)[C@@H]1CC[C@@H]1[C@@]3(C)CC[C@H](OC(=O)CCC(=O)O)C(C)(C)[C@@H]3CC[C@]12C` , what call appears in the results of this test?
(A) inactive

(Q) For CC[C@@](C)(NC(=O)[C@H](C)NC(=O)CCNC(=O)C(C)(C)NC(=O)[C@H](C)NC(=O)[C@@H]1CCCN1C(=O)[C@@](C)(CC)NC(=O)[C@H](Cc1ccccc1)NC(=O)C1CCCN1C(=O)C(C)(C)NC(=O)C1CCCN1C(=O)C(C)(C)NC(C)=O)C(=O)NCCC(=O)N[C@@H](CC(C)C)C(=O)NC(C)(C)C(=O)NCCC(=O)N[C@@H](CC(C)C)C(=O)NC(C)(C)C(=O)NC(C)(C)C(=O)N[C@@H](CC(C)C)C(=O)NCCC(=O)NCO (stereo partly specified) , what call appears in the results of this test?
(A) active

(Q) For O=C1CC(c2ccccc2)Cc2nc3ccc(Br)cc3cc21 (stereo unspecified) , what call appears in the results of this test?
(A) inactive

(Q) For `COCCCNc1nc(NC(=O)c2cc(OC)cc(OC)c2)cc(-c2cccnc2)n1` , what call appears in the results of this test?
(A) inactive

(Q) For Cc1ccc2c(c1)C(C)Cc1c(Cl)ncnc1N2C (stereo unspecified) , what call appears in the results of this test?
(A) inactive

###

test system: RXF 393 renal; experiment: NCI-60 one-dose screen, 48 h; details: 10 µM unless noted
About 83,000 compounds went through this panel and 20% of them were active in at least one assay; those are over-represented in the sample as a whole. Activity calls are given as the source filed them. How the source made its calls: active means growth percent below 10; inactive means the rest.
One label from this list, please: yes (1) = active, no (0) = inactive

These solved cases illustrate the format of a correct answer.
line.notation	cat
COC(=O)C(=Cc1ccccc1[N+](=O)[O-])C(=O)OC	yes (1)
CC(C)(C)OC(=O)N1C=C/C(=C\Cn2cc(-c3ccccc3)nn2)CC1	no (0)
C[C@H]1[C@H](C)CC[C@]2(C(=O)N3CCN(C)CC3)CC[C@]3(C)C(=CC[C@@H]4[C@@]5(C)C/C(=C/c6ccco6)C(=O)C(C)(C)[C@@H]5CC[C@]43C)[C@H]12	no (0)

Then there is this molecule:
(Q) For `O=C1Nc2ccccc2/C1=C/C(=O)c1ccc(N2CCCC2)cc1` , what call appears in the results of this test?
(A) no (0)

###

Consider the following compounds and their measured growth readings.
test system: MCF7 breast; assay: NCI-60 one-dose screen, 48 h (100 = growth as untreated, 0 = no growth, -100 = all killed); details: 10 µM unless noted
The panel holds about 83,000 compounds, 20% with a hit somewhere; the sample as a whole holds those more often. Active and inactive are the calls of the source. The calls were made as follows: active = growth percent below 10; inactive = the rest.

compound	growth
COC(=O)[C@]12CCC(C)(C)C[C@H]1C1=CC[C@@H]3[C@@]4(C)C/C(=C/c5cccnc5)C(=O)C(C)(C)[C@@H]4CC[C@@]3(C)[C@]1(C)CC2	-65.1% [100 µM] (active)
C=C(C)[C@@H]1CC[C@]2(c3ncc(C)o3)CC[C@]3(C)[C@H](CC[C@@H]4[C@@](C)(CCC#N)[C@H](C(=C)C)CC[C@]43C)[C@@H]12	-73.3% [100 µM] (active)

(Q) Which growth is reported for this compound? `CSc1nc(N)c(N=Nc2ccc(S(=O)(=O)Nc3nnc(C)s3)cc2)c(=O)[nH]1`
(A) 100% (inactive)

(Q) Which growth is reported for this compound? CCN(CC)CCCC(C)Nc1ccnc2cc(Cl)c(SCc3ccccc3)cc12 (centres undefined)
(A) -49.5% (active)

(Q) Which growth is reported for this compound? `O=C(Nc1cccc2cccnc12)c1cc(C(=O)c2ccc(Cl)cc2)n2ccc(-c3ccncc3)cc12`
(A) 98.3% (inactive)

(Q) Which growth is reported for this compound? CCN(CC)CC(C)Nc1ccc(C)c2sc3ccccc3c(=O)c12 (centres undefined)
(A) 32.6% (inactive)

(Q) Which growth is reported for this compound? `CC(C)=CC/C=C(/C)[C@H]1CC[C@]2(C)[C@@H]1CC[C@@H]1[C@@]3(C)CCCNC(C)(C)[C@@H]3CC[C@]12C`
(A) -54.6% [100 µM] (active)

(Q) Which growth is reported for this compound? `Nn1c(Nc2ccc(S(=O)(=O)Nc3ncccn3)cc2)nnc(/C=C/c2c(O)ccc3ccccc23)c1=O`
(A) 76.6% (inactive)

(Q) Which growth is reported for this compound? CC1Cc2ccc(OCCN(C)C)cc2C1=O (centres undefined)
(A) 100% (inactive)

###

tested on: NCI-H226 lung; test: NCI-60 one-dose screen, 48 h; settings: 10 µM unless noted
The panel holds about 83,000 compounds, 20% with a hit somewhere; the sample as a whole holds those more often. Active and inactive are the calls of the source. The calls were made as follows: active = growth percent below 10; inactive = the rest.
One label from this list, please: active, inactive

(Q) For CC[C@]1(O)CC2CN(CCc3c([nH]c4ccccc34)[C@@](C(=O)OC)(c3cc4c(cc3OC)N(C=O)[C@H]3[C@@](O)(C(=O)OC)[C@H](OC(C)=O)[C@]5(CC)C=CCN6CC[C@]43[C@@H]65)C2)C1 (stereo partly drawn) , what call appears in the results of this test?
(A) active

(Q) For `CCN(CC)c1cc(N)c(Cc2c(N)cc(N(CC)CC)cc2Cl)c(Cl)c1` , what call appears in the results of this test?
(A) inactive

(Q) For `Clc1ccc(/C=N/Nc2nc3ccccc3s2)c(Cl)c1` , what call appears in the results of this test?
(A) inactive

(Q) For `CC1(C)CC[C@]23CC[C@]4(C)[C@H](CC[C@@H]5[C@@]6(C)C/C(=C/c7ccncc7)C(=O)C(C)(C)[C@@H]6CC[C@]54C)[C@H]2[C@H]1OC3=O` , what call appears in the results of this test?
(A) inactive

(Q) For `CNC(=O)c1cc(Oc2ccc3nc(NC(=O)c4ccc5ncccc5c4)sc3c2)ccn1` , what call appears in the results of this test?
(A) inactive

(Q) For `CCCCNC(=O)NS(=O)(=O)Cc1ccccc1` , what call appears in the results of this test?
(A) inactive

(Q) For CCOC(=O)c1nn(C2CCCCO2)c2ccc(NC(=O)CSc3nc4ccccc4c(=O)[nH]3)cc12 (stereo not drawn) , what call appears in the results of this test?
(A) inactive

(Q) For `COc1ccc(C2=C(c3cn(C)c4ccccc34)C(=O)OC2)cc1OC` , what call appears in the results of this test?
(A) inactive
